tested-target: T1, NLpoly11S
T1 chain: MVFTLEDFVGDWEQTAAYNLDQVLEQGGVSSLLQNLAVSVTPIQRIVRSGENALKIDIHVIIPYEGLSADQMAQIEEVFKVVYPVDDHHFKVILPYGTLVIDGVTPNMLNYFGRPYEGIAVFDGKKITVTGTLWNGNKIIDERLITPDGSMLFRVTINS
assay-explanation: luminescence complementation titration, one-site specific binding fit
Below: a set of entries, each annotated with reported Bmax.

| binder | Bmax |
| --- | --- |
| VEGYRLFEKAS (modifications not checked) [array2.74] | 3810 |
| VEGYRLFQQAS (modifications not checked) [array2.68] | 3750 |
| VTGYRLFQEIS (modifications not checked) [array2.16] | 1320 |
| VTGYRLFKQEL (modifications not checked) [array2.33] | 8550 |
